Numbers sourced from patent US12522587B2.

# Tested on: AGS cells
# assay.protocol: Cell viability in AGS cells (CellTiter Glo2, 8-point dose response, 4 days)
# Format: cell-based, human
# setup.conditions: Homo sapiens, AGS, 96 h
observed.property: IC50

Reference set, count: 5
IN: Requested field: IC50. Item: CCC(=O)N1CCc2cc(-c3ccc(C(=O)NCc4ccncn4)cc3)ccc21
OUT: > 30 µM

IN: Need IC50 of CCC(=O)N1CCc2cc(-c3ccc(C(=O)NC(C)(C)c4cccnc4)cc3)ccc21 , thanks.
OUT: > 30 µM

IN: Dear colleague, I am looking for the recorded IC50 of the following compound: CCC(=O)N1CCc2cc(-c3cccc(C(=O)NCc4cccnc4)c3)ccc21
OUT: > 30 µM

IN: Report IC50 for CCC(=O)N1CCc2cc(-c3ccc(C(=O)NCC4CCCCC4)cc3)ccc21 please.
OUT: > 30 µM

IN: Fill blank: measured IC50 of the compound CCC(=O)N1CCc2cc(-c3ccc(C(=O)NCc4ccc(F)cc4)cc3)ccc21 is ____.
OUT: > 30 µM

Next:
IN: Can you look up the measured IC50 of CCC(=O)N1CCc2cc(-c3ccc(C(=O)NCC4CCCNC4)cc3)ccc21 (centres unmarked) for me?
OUT: > 30 µM

IN: Give the measured IC50 of CCC(=O)N1CCc2cc(-c3ccc(C(=O)NCc4cnccc4C)cc3)ccc21 .
OUT: > 30 µM

IN: Entry CCC(=O)N1CCc2cc(-c3ccc(NC(=O)Cc4cccnc4)cc3)ccc21 has what IC50?
OUT: > 30 µM
